Target: Monoamine transporters; serotonin & dopamine (Rattus norvegicus) (UniProt P31652+P23977)
Sequence (P23977 whole entry, looked up): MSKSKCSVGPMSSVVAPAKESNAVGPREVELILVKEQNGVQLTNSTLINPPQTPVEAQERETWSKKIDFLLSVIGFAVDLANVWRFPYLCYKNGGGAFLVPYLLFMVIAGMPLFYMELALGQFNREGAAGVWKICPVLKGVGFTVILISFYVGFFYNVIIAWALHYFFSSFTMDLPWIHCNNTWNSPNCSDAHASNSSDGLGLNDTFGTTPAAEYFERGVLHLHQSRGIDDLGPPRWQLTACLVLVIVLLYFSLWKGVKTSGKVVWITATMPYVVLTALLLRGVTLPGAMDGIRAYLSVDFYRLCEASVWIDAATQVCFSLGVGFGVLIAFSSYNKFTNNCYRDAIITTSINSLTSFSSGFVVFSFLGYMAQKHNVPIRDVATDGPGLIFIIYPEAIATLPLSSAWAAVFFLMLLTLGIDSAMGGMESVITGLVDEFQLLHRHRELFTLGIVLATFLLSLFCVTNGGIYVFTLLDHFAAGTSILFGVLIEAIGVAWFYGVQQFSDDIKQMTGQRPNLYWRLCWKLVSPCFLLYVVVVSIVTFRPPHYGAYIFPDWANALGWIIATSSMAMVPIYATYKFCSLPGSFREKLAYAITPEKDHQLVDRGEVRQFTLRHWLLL
Sequence (P31652 whole entry, looked up): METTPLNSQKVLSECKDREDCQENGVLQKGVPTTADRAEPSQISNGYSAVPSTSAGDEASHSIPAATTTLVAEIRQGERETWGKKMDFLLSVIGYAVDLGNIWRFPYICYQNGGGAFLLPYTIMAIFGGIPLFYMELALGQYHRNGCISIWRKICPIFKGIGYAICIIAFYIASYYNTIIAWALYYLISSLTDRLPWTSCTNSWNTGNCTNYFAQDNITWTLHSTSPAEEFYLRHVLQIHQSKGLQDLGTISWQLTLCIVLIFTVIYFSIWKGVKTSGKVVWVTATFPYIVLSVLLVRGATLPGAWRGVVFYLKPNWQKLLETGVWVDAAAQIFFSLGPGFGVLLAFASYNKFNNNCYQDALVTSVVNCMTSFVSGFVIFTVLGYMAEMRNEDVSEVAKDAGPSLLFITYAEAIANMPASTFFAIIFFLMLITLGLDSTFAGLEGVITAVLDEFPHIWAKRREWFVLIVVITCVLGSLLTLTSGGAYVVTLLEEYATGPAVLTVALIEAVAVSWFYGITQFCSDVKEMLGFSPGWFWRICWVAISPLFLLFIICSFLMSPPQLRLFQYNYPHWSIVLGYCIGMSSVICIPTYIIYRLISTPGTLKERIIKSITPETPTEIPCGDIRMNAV
Experiment: Selectivity ratio for DAT binding compared to 5-HTT binding.
Type: protein assay
property: Selectivity ratio

Exercise: Can you look up the measured Selectivity ratio of c1ccc(CN2CC3CCC(C2)C3c2ccccc2)cc1 (stereo in doubt; 8a) for me?
Key: 14.8

Exercise: Can you look up the measured Selectivity ratio of BrC1C2CCC1CN(Cc1ccccc1)C2 (stereo not given) for me?
Key: > 2.2

Exercise: Can you look up the measured Selectivity ratio of CN1CC2CCC(C1)C2(O)c1ccccc1 (stereo not given) for me?
Key: > 1

Exercise: Can you look up the measured Selectivity ratio of Clc1ccc(C2C3CCC2CN(Cc2ccccc2)C3)cc1 (stereo not given) for me?
Key: 4.2

Exercise: Can you look up the measured Selectivity ratio of c1ccc(CN2CC3CCC(C2)C3OC(c2ccccc2)c2ccccc2)cc1 (stereo in doubt; 17a) for me?
Key: 27

Exercise: Can you look up the measured Selectivity ratio of CN1CC2CCC(C1)C2c1ccc(Cl)cc1 (stereo not given) for me?
Key: 0.81

Exercise: Can you look up the measured Selectivity ratio of OC1(c2ccccc2)C2CCC1CN(Cc1ccccc1)C2 (stereo not given) for me?
Key: 0.17

Exercise: Can you look up the measured Selectivity ratio of OC1C2CCC1CN(Cc1ccccc1)C2 (stereo not given) for me?
Key: > 0.45

Exercise: Can you look up the measured Selectivity ratio of CN1CC2CCC(C1)C2c1ccccc1 (stereo not given) for me?
Key: 5.1

Exercise: Can you look up the measured Selectivity ratio of OC1(c2ccc(Cl)cc2)C2CCC1CN(Cc1ccccc1)C2 (stereo not given) for me?
Key: 0.66

Exercise: Can you look up the measured Selectivity ratio of Clc1ccc(C2C3CCC2CNC3)cc1 (stereo not given) for me?
Key: 4.4

Exercise: Can you look up the measured Selectivity ratio of c1ccc(C2C3CCC2CNC3)cc1 (stereo not given) for me?
Key: 16

Exercise: Can you look up the measured Selectivity ratio of c1ccc(CN2CC3CCC(C2)C3c2ccccc2)cc1 (stereo in doubt; 14) for me?
Key: 4.9

Exercise: Can you look up the measured Selectivity ratio of c1ccc(CN2CC3CCC(C3)C2)cc1 for me?
Key: > 0.41

Exercise: Can you look up the measured Selectivity ratio of c1ccc(CN2CC3CCC(C2)C3OC(c2ccccc2)c2ccccc2)cc1 (stereo in doubt; 17b) for me?
Key: > 18

Cited source: ChEMBL document CHEMBL1136760
